# normalized growth values compiled below
TEST_DESCRIPTION: chemical genetic growth profiling, strain panel (AID 1159580);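 note: tested at 20 µM; growth read once vehicle control cultures reached saturation at 30 °C; 1 = growth at the plate median or of vehicle wells; lower values mean less growth of the strain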
PROTOCOL_CONDITIONS: S. cerevisiae deletion strains, growth OD, locus YMR078C, strain ctf18, hits give low values
Out of some 5,500 compounds screened, about 2,000 (36%) were called active. About 18% were inconclusive and are not listed. Some of the results follow.
MEASURED_QUANTITY: normalized growth

1. O=C1C=C2C(=CCOC2O)O1 (configuration not stated) = 0.989
2. NC(=O)c1ncn([C@@H]2O[C@H](CO)[C@@H](O)[C@H]2O)n1 = 0.979
3. OCC(O)C(O)C(O)C(O)C(O)CO (configuration not stated) = 0.989
4. CC(C)c1c(O)ccc2c1CCC1C(C)(C)CCC[C@]21C (some centres not stated) = 0.211
5. Oc1cc2c(cc1O)C1c3ccc(O)c(O)c3OCC1(O)C2 (configuration not stated) = 1.01
6. CC(C)c1c(O)ccc2c1CCC1[C@@](C)(CO)CCC[C@]21C (some centres not stated) = 0.928
7. NC(N)=NC(=O)c1nc(Cl)c(N)nc1N = 1.02
8. CC12CCC3c4ccc(OCc5ccccc5)cc4CCC3C1C[C@@H](O)[C@@H]2O (some centres not stated) = 0.0734
9. Oc1ccc2c(c1)OCC1(O)Cc3cc(O)c(O)cc3C21 (configuration not stated) = 0.988
10. CC(CC(O)C1OC1(C)C)[C@@H]1CCC2(C)C3=CCC4C(C)(C)C(=O)CCC4(C)C3CC[C@@]12C (some centres not stated) = 1.05
11. CN(C)c1nc(N)c(C(=O)N=C(N)N)nc1Cl = 1.01
12. C[C@@H]1CC[C@@]2(OC1)OC1CC3C4CC=C5C[C@@H](O)CC[C@]5(C)C4CC[C@]3(C)C1[C@@H]2C (some centres not stated) = 0.951
13. CN1C(C)(C)CCCC1(C)C = 0.999
14. COC(=O)[C@]1(C)CCC[C@]2(C)c3ccc(C(C)C)cc3C(=O)CC12 (some centres not stated) = 1
15. C[C@@H]([C@H](O)c1ccccc1)N(C)C = 1.01
16. COc1ccc(-c2cc(=O)c3c(O)cc(O[C@@H]4O[C@H](CO[C@H]5O[C@H](C)[C@@H](O)[C@H](O)[C@@H]5O)[C@@H](O)[C@H](O)[C@H]4O)cc3o2)cc1O = 0.993
17. COc1ccc2c3c1OC1C(O)CC=C4C(C2)N(C)CCC431 (configuration not stated) = 1.03
18. COc1ccc2c(c1)CCC1C2CCC2(C)C1C[C@@H](O)C2O (some centres not stated) = 0.992
19. CCCCCCCCCCCC1=C(O)C(=O)C=C(O)C1=O = 0.96
20. CC1O[C@@H](Oc2c(-c3ccc(O)c(O)c3)oc3cc(O)cc(O)c3c2=O)[C@H](O)[C@H](O)[C@H]1O (some centres not stated) = 0.988
21. CC(C)c1c(O)ccc2c1CCC1[C@@](C)(C=O)CCC[C@]21C (some centres not stated) = 0.422
22. NC(N)=NC(=O)c1nc(Cl)c(N2CCCCCC2)nc1N = 1.01
23. CCCCCc1c2c(cc(O)c1C(=O)O)OC(=O)c1c(cc(OC)cc1C(=O)CCCC)O2 = 0.983
24. CCCCCCCCCCCCCCCCCC(=O)OC(CC(=O)O)C[N+](C)(C)C (configuration not stated) = 0.392
25. COc1ccc(-c2oc3cc(O[C@H]4O[C@H](CO)[C@@H](O)[C@H](O)[C@H]4O)c(OC)c(O)c3c(=O)c2OC)cc1O = 0.976
26. CC/C(=C(/CC)c1ccc(O)cc1)c1ccc(O)cc1 = 1
27. CCCCCCC(C)OC(=O)COc1ccc(Cl)cc1Cl (configuration not stated) = 1.01
28. O=c1c(O)c(-c2ccc(O)c(O)c2)oc2cc(O)cc(O)c12 = 1.03
29. CCc1cc(C(N)=S)ccn1 = 0.978
30. COC(=O)[C@@]1(C)CCC[C@]2(C)c3ccc(O)c(C(C)C)c3CCC12 (some centres not stated) = 0.96
31. CCN(Cc1ccncc1)C(=O)C(CO)c1ccccc1 (configuration not stated) = 0.999
32. C=C[C@H]1CN2CC[C@H]1C[C@@H]2[C@@H](OC(=O)OCC)c1ccnc2ccc(OC)cc12 = 1.02
